molecular target: Rhodopsin kinase GRK7 (Homo sapiens) (UniProt Q8WTQ7); conditions: at 10 µM
Sequence (Q8WTQ7 whole entry): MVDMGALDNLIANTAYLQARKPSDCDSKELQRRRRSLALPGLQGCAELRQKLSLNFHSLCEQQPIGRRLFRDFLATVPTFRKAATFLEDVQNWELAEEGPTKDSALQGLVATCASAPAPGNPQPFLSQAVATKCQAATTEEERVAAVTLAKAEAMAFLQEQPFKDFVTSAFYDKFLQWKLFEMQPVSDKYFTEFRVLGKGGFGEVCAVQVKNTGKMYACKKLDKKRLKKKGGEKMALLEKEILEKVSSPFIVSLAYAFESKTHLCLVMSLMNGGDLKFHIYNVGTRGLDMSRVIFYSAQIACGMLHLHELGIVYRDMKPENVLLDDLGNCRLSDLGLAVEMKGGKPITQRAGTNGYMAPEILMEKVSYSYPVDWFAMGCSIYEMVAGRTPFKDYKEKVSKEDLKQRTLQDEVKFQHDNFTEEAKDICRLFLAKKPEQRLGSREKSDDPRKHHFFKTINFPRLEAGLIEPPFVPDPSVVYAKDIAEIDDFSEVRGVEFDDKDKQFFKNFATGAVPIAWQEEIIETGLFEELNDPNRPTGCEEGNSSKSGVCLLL
MEASURED QUANTITY: residual activity (%)
Reply numerically in %, unit not repeated.

> print(dat)
                                        mol  uom  value.observed
1  COc1ccc2c(c1)c(C1=C(c3c[nH]c4ccccc34)C(=O)NC1=O)cn2CCCN(C)C    %              44
2  O=C(Nc1nc2ccccc2n1CCN1CCOCC1)c1cccc([N+](=O)[O-])c1    %              79
3        CCCCc1c(-c2ccc(O)cc2)[nH]c2nccnc12    %              87
4     Cc1cc(C)c(/C=C2\C(=O)Nc3ccccc32)[nH]1    %              60
5  Oc1cccc(-c2nc(N3CCOCC3)c3oc4ncccc4c3n2)c1    %              94
6  O=C1Nc2ccc(Cl)cc2/C1=C/c1cc(Cl)c(O)c(Cl)c1    %              79

Attention now shifts to the item below.
The molecule listed as "O=C(c1cc2cc(O)ccc2[nH]1)c1cc2cc(O)ccc2[nH]1" has a reported residual activity of 54

---

target: Tyrosine-protein kinase Fes/Fps (Homo sapiens); conditions: at 1 µM
Cut-off 90% on residual activity, inclusive. At or above means satisfied; below means not satisfied.

> print(dat)
                                   compound  class.name
1  CCCC(=O)Oc1ccc2[nH]c(C(=O)c3cc4ccccc4[nH]3)cc2c1   satisfied
2  CSc1nc(-c2ccc(F)cc2)c(-c2ccnc(NC(C)c3ccccc3)c2)[nH]1 (stereo not given)   satisfied
3  c1ccc(-c2cnc(Nc3ccc(OCCN4CCCC4)cc3)s2)cc1   satisfied

Inquiry: State whether the measured residual activity reaches 90%, counting equality as reaching it, for "O=C1NC(=O)c2c1c1c3ccccc3[nH]c1n1cncc21"
Reply text: not satisfied

Inquiry: State whether the measured residual activity reaches 90%, counting equality as reaching it, for "CCCCc1c(-c2ccc(OC)cc2)[nH]c2nccnc12"
Reply text: not satisfied

Inquiry: State whether the measured residual activity reaches 90%, counting equality as reaching it, for "Cn1sc(=O)n(Cc2ccccc2)c1=O"
Reply text: satisfied

---

molecular target: Serine/threonine-protein kinase Sgk3 (Homo sapiens) (UniProt Q96BR1); details: at 10 µM
Sequence (Q96BR1 whole entry): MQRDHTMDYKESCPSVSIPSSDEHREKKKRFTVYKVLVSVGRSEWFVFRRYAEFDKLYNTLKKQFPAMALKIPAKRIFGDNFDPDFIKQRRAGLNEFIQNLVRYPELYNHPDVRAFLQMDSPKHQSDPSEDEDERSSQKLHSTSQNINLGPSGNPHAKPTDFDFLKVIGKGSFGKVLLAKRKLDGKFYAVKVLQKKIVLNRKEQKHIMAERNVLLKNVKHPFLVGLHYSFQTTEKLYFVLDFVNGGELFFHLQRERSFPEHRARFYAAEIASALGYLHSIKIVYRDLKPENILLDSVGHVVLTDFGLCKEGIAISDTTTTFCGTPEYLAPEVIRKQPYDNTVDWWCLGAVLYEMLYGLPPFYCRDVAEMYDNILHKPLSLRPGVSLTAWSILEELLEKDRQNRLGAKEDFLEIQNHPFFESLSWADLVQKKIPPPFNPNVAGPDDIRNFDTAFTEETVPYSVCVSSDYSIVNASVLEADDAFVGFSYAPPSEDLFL
MEASURED QUANTITY: residual activity (%)
Reply numerically in %, unit not repeated.

Previously resolved entries follow.
> print(dat)
                                   compound  measured.quantity  value.observed
1  COc1cc2nccc(Oc3ccc(NC(=S)NC(=O)c4ccccc4C)cc3)c2cc1OC  residual activity              79
2  O=C(NC(NC(=S)Nc1ccc(F)c([N+](=O)[O-])c1)C(Cl)(Cl)Cl)C(c1ccccc1)c1ccccc1 (centres undefined)  residual activity              77
3   N#C/C(=C\c1ccc(O)c(O)c1)C(=O)NCc1ccccc1  residual activity              73

The compound listed as "CC(C)c1nn(-c2c(Cl)cccc2Cl)c2nc(Cc3ccc(OCCO)cc3)[nH]c(=O)c12" has a reported residual activity of 81

The compound listed as "Nc1ncnc2c1cnn2-c1ccccc1" has a reported residual activity of 93

The compound listed as "N#Cc1c(NC(=O)c2cccc3ccccc23)sc2c1CCCC2" has a reported residual activity of 86

The compound listed as "CCCCc1c(-c2ccc(O)cc2)[nH]c2nccnc12" has a reported residual activity of 75

The compound listed as "O=c1cc(N2CCOCC2)oc2c1ccc1ccccc12" has a reported residual activity of 97

The compound listed as "COc1ccc(Cl)cc1NC(=O)Nc1cc(C)nc2ccccc12" has a reported residual activity of 78

This collection of values is drawn from ChEMBL document CHEMBL2218924.
